- Test system: IGROV1 ovarian
- EXPERIMENT_NOTES: NCI tumour cell line growth inhibition, 48 h
Listed here: items and their measured TGI.
REPORTED_METRIC: TGI (µM)

>  <MOLECULE>
Nc1ccc(O)c2c1C(=O)c1c(N)ccc(O)c1C2=O

>  <LT_GT_EQ>
>

>  <ASSAY_RESULT>
100

$$$$
>  <MOLECULE>
COc1ccc(/C=C2\COc3ccc(O)c(O)c3C2=O)c(OC)c1OC

>  <LT_GT_EQ>
=

>  <ASSAY_RESULT>
7.21

$$$$
>  <MOLECULE>
O=C(O)CC(NC(=O)/C(=C/c1ccccc1)NC(=O)c1ccccc1)C(=O)O (configuration not stated)

>  <LT_GT_EQ>
>

>  <ASSAY_RESULT>
100

$$$$
>  <MOLECULE>
Cc1c(/C=N/NC(=S)Nc2ccc(Cl)cc2)c(=O)n(-c2ccccc2)n1C

>  <LT_GT_EQ>
=

>  <ASSAY_RESULT>
45.2

$$$$
>  <MOLECULE>
CN(C)CCC(CCN(C)C)=NO

>  <LT_GT_EQ>
>

>  <ASSAY_RESULT>
100

$$$$
>  <MOLECULE>
CN(C)CCCSc1ccccc1NC1=C(Cl)C(=O)C(Nc2ccccc2SCCCN(C)C)=C(Cl)C1=O

>  <LT_GT_EQ>
=

>  <ASSAY_RESULT>
3.44

$$$$
>  <MOLECULE>
COC(=O)C1=C(C)N2CCSC2(C)C(C(=O)OC)C1c1cccc(Cl)c1 (configuration not stated)

>  <LT_GT_EQ>
>

>  <ASSAY_RESULT>
100

$$$$
>  <MOLECULE>
CCC/C(Cl)=N/OC(=O)Nc1cc(C(F)(F)F)ccc1OC

>  <LT_GT_EQ>
=

>  <ASSAY_RESULT>
30.7

$$$$
>  <MOLECULE>
COc1ccccc1C(=O)NO

>  <LT_GT_EQ>
>

>  <ASSAY_RESULT>
100

$$$$
>  <MOLECULE>
NS(=O)(=O)c1ccc(Nc2c3ccccc3nc3c(C(=O)N4CCN(CCO)CC4)cccc23)cc1

>  <LT_GT_EQ>
>

>  <ASSAY_RESULT>
100

$$$$
>  <MOLECULE>
C=CC(=O)N1C[C@@H]2CCOc3c(Cl)c(-c4c(O)cccc4F)c(F)c4ncnc(c34)N2C[C@H]1C

>  <LT_GT_EQ>
=

>  <ASSAY_RESULT>
46.6

$$$$
>  <MOLECULE>
OCC[N+]12CCCN1CCC2

>  <LT_GT_EQ>
>

>  <ASSAY_RESULT>
100

$$$$
>  <MOLECULE>
CC(=O)OCC1OC(N2C(c3ccccc3)=CC(c3ccco3)C(C#N)=C2S)C(OC(C)=O)C(OC(C)=O)C1OC(C)=O (configuration not stated)

>  <LT_GT_EQ>
>

>  <ASSAY_RESULT>
67.1

$$$$
>  <MOLECULE>
CCOC(=O)C1=C(C)NC2=C(C(=O)N(c3ccccc3)C2c2ccccc2)C1c1ccccc1 (configuration not stated)

>  <LT_GT_EQ>
=

>  <ASSAY_RESULT>
40.8

$$$$
>  <MOLECULE>
CCCCCCn1c(SC)nc(COC(=O)NC)c1COC(=O)NC

>  <LT_GT_EQ>
=

>  <ASSAY_RESULT>
30.5

$$$$
>  <MOLECULE>
COc1ccc(C(=O)c2c3cc(OC)c(OC)c(OC)c3cc[n+]2C)cc1

>  <LT_GT_EQ>
>

>  <ASSAY_RESULT>
100

$$$$
>  <MOLECULE>
CC(=O)c1cc2c(s1)C(=O)c1sccc1C2=O

>  <LT_GT_EQ>
=

>  <ASSAY_RESULT>
0.337

$$$$
>  <MOLECULE>
CC(=O)Nc1ccc(C(=O)NN2C(=O)CSC2c2ccc(O)cc2)cc1 (configuration not stated)

>  <LT_GT_EQ>
>

>  <ASSAY_RESULT>
100

$$$$
>  <MOLECULE>
CNC1Cc2c[nH]c3cccc(c23)C12C=C(C)C(=O)O2 (configuration not stated)

>  <LT_GT_EQ>
>

>  <ASSAY_RESULT>
100

$$$$
>  <MOLECULE>
CC[C@@]1(O)C(=O)OCc2c1cc1n(c2=O)Cc2cc3ccccc3nc2-1

>  <LT_GT_EQ>
=

>  <ASSAY_RESULT>
11.3

$$$$
>  <MOLECULE>
COc1cc([N+](=O)[O-])c(OC)cc1-c1nc2sc(C)cn2c1/C(N)=N/C(=N)N

>  <LT_GT_EQ>
>

>  <ASSAY_RESULT>
100

$$$$
>  <MOLECULE>
NC(=S)N/N=C1\c2ccccc2-c2c(F)c(F)c(F)c(F)c21

>  <LT_GT_EQ>
=

>  <ASSAY_RESULT>
13.8

$$$$

The reported measurements were obtained from PubChem BioAssay (NCI).
